Target: T1, GST-LIM Mystique PDZ domain 1 (Homo sapiens (Human)), Q96JY6
T1 chain: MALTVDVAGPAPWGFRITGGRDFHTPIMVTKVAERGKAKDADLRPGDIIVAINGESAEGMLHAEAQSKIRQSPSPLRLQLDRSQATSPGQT
Test: G' assay; also: key of the grades not given here
Exercise: for every item that follows, state its recorded Classification.
Numbers only, in A450 class.

Ask: Request the reported Classification associated with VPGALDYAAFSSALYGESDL (modifications not checked) [a-actinin 2]
Result: 5

Ask: Value lookup for Classification; key = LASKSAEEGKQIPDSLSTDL (modifications not checked) [DOCK2]
Result: 1

New cases:
Ask: Fill blank: measured Classification of the binder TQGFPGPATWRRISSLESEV (modifications not checked) [NMDA Glutamate Receptor 2C (cysteine-free)] is ____.
Result: 4
